Data provenance: patent US12404304B1

Tested on: viable cells in culture
Assay: Cell viability assay (CellTiter-Glo Luminescent Cell Viability Assay, ATP quantitation, percent of vehicle control)
measure-name: Average Cell Viability after 24 Hours (% DMSO)

molecule: COc1ccc(OC)c(NC(=O)CSc2ccc(-c3ccccn3)nn2)c1
unit-of-measure: % DMSO
reading: 66.42

molecule: CCCCC(=O)OC1=C(C(=O)c2ccccc2)N(CC)S(=O)(=O)c2ccccc21
unit-of-measure: % DMSO
reading: 82.36

molecule: O=C(NCC1CCCO1)c1cc(-c2cccs2)on1 (stereo not drawn)
unit-of-measure: % DMSO
reading: 83.74

molecule: CC(C)(C)NC(=O)NCc1nnnn1-c1ccccc1
unit-of-measure: % DMSO
reading: 97.19

molecule: COc1cc(CCNC(=O)c2cc(-c3cccs3)on2)ccc1O
unit-of-measure: % DMSO
reading: 98.51

molecule: CCCC(=O)NC(c1ccc(SC)cc1)c1ccc2cccnc2c1O (stereo not drawn)
unit-of-measure: % DMSO
reading: 86.63

molecule: Cc1[nH]c2c(-c3cccc(Br)c3)cnn2c(=O)c1Cc1ccccc1
unit-of-measure: % DMSO
reading: 61.72

molecule: Cc1ccc2nc(-c3ccc(NC(=S)NC(=O)CCc4ccccc4)cc3)sc2c1
unit-of-measure: % DMSO
reading: 79.15

molecule: CC(C)COc1ccc(NC(=O)C2CC2)cc1
unit-of-measure: % DMSO
reading: 83.84

molecule: Cc1nn2c(=O)c(Cl)c(C)[nH]c2c1-c1ccccc1
unit-of-measure: % DMSO
reading: 88.39

molecule: Cc1csc(-n2nc(C)c(CCC(=O)Nc3ccc(Br)cc3)c2O)n1
unit-of-measure: % DMSO
reading: 77.29

molecule: Cc1nc(-n2nc(C)c(CC(=O)N3CCN(c4ccc(F)cc4)CC3)c2O)sc1C
unit-of-measure: % DMSO
reading: 78.39
